The origin of these recorded values is ChEMBL document CHEMBL3244320.

# MST per entry
System: Plasmodium berghei
Assay: Antimalarial activity against Plasmodium berghei KBG 173 infected in ICR/HA Swiss mouse assessed as increase in mean survival time at 320 mg/kg, sc administered 72 hrs post infection
Type: functional
Settings: route subcutaneous
I only need the number, in days, no unit after it.

The following compounds have reported results that may help.
C/C(=N\NC(=S)NCc1cccc(F)c1)c1ccccn1    5.8
COc1cccc(NC(=S)N/N=C(\C)c2ccccn2)c1    4.3
C/C(=N\NC(=S)NCc1ccc(C)cc1)c1ccccn1    5.7
CCc1ccc(NC(=S)N/N=C(\C)c2ccccn2)cc1    3.1
C=CCNC(=S)N/N=C(\C)c1ccccn1    3

Given the entry C/C(=N\NC(=S)Nc1c(C)cccc1C)c1ccccn1 , what MST was observed with Plasmodium berghei?
5.8

Given the entry COc1ccc(CNC(=S)N/N=C(\C)c2ccccn2)cc1 , what MST was observed with Plasmodium berghei?
5.9

Given the entry C/C(=N\NC(=S)Nc1cccc(C)c1)c1ccccn1 , what MST was observed with Plasmodium berghei?
10.3

Given the entry COc1ccccc1CNC(=S)N/N=C(\C)c1ccccn1 , what MST was observed with Plasmodium berghei?
3.5

Given the entry C/C(=N\NC(=S)NC(C)c1ccc(F)cc1)c1ccccn1 (configuration not stated) , what MST was observed with Plasmodium berghei?
5.2

Given the entry C/C(=N\NC(=S)NCc1ccccc1C)c1ccccn1 , what MST was observed with Plasmodium berghei?
7.7

Given the entry C/C(=N\NC(=S)NC12CC3CC(CC(C3)C1)C2)c1ccccn1 , what MST was observed with Plasmodium berghei?
8.5
